procedure-details: basal 3T3-L1 adipocyte mitochondrial potential changes, profiling panel, cell-based, JC-1 fluorescence, 3T3-L1 adipocytes, 24 h, 100 nL compound (AID 1168); further: test concentration not given here
test-parameters: JC-1 mitochondrial fluorescence, higher = more signal, called active from +8 up or from −8 down
This listing pairs molecules with measured z-score.
Please state the value as a number alone, without comment.

Looking up "O=C1O[C@H](c2ccccc2)[C@H](c2ccccc2)N2[C@H]1[C@@H](C(=O)N1CCCCCCC1)[C@]1(C(=O)Nc3ccc(C#CCCO)cc31)[C@H]2c1ccc(O)cc1" , I see its z-score listed as 0.547

Looking up "Cc1ccc(S(=O)(=O)N2[C@@H](c3ccccc3)C(C(=O)O)=CC[C@H]2c2ccc(F)cc2)cc1" , I see its z-score listed as 0.2

---
Looking up "CCOC(=O)C[C@H]1[C@H](OC(=O)c2ccc(-c3ccccc3)cc2)[C@@H](NC(=O)c2ccc(-c3ccccc3)cc2)c2cc(OCCCO)ccc2N1C(=O)c1ccccc1" , I see its z-score listed as -0.45
